- Tested on: T-47D cells
- assay info: Inhibition of cell proliferation in T-47D cells (CCK-8, 6 days)
- Format: cell-based
- reported conditions: 6 days of treatment, Table 3
Here, each record is paired with measured pIC50 data.
Remember the convention: pIC50 equals -log10 of concentration in molar.

- CC(C)(C(=O)N1CCC2(CC1)COc1c2ccc2c1CN(C1CCC(=O)NC1=O)C2=O)N1CCC2(CCN(c3ccc([C@@H]4c5ccc(O)cc5CC[C@@H]4c4ccccc4)cc3)CC2)C1 (some centres unmarked): 8.95

# input For the compound shown here, O=C1CCC(N2Cc3c(ccc4c3OCC43CCN(C4CCN(C5CC6(CCN(c7ccc([C@@H]8c9ccc(O)cc9CC[C@@H]8c8ccccc8)cc7)CC6)C5)[C@H](C(=O)NC5CC5)C4)CC3)C2=O)C(=O)N1 (some centres unmarked) , give the reported pIC50.
# output 8.73

# input For the compound shown here, CC1(C(=O)N2CCC(N3CCC4(CC3)COc3c4ccc4c3CN(C3CCC(=O)NC3=O)C4=O)CC2)CCN(c2ccc([C@@H]3c4ccc(O)cc4CC[C@@H]3c3ccccc3)cc2)CC1 (some centres unmarked) , give the reported pIC50.
# output 8.93

# input For the compound shown here, O=C1CCC(N2Cc3c(ccc4c3OCC43CCN(C4CCC(Oc5ccc([C@@H]6c7ccc(O)cc7CC[C@@H]6c6ccccc6)cc5)CC4)CC3)C2=O)C(=O)N1 (some centres unmarked) , give the reported pIC50.
# output 7.80

# input For the compound shown here, C[C@@H]1Cc2c([nH]c3ccccc23)[C@@H](c2c(F)cc(N3CCC4(CCN(CC(=O)N5CCC6(CC5)COc5c6ccc6c5CN(C5CCC(=O)NC5=O)C6=O)C4)CC3)cc2F)N1CC(F)F (some centres unmarked) , give the reported pIC50.
# output 8.92

# input For the compound shown here, C[C@@H]1Cc2c([nH]c3ccccc23)[C@@H](c2c(F)cc(N3CCC(C(=O)N4CCC(N5CCC6(CC5)COc5c6ccc6c5CN(C5CCC(=O)NC5=O)C6=O)CC4)CC3)cc2F)N1CC(F)F (some centres unmarked) , give the reported pIC50.
# output 8.92

# input For the compound shown here, O=C1CCC(N2Cc3c(ccc4c3OCC43CCN(C4CCN(C(=O)C5CCN(c6ccc([C@@H]7c8ccc(O)cc8CC[C@@H]7c7ccccc7)cc6)CC5)[C@@H](C(=O)N5CC(F)(F)C5)C4)CC3)C2=O)C(=O)N1 (some centres unmarked) , give the reported pIC50.
# output 8.93

# input For the compound shown here, C[C@@H]1Cc2c(ccc3[nH]ncc23)[C@@H](c2ccc(N3CCN(C[C@H]4CC[C@H](C(=O)N5CCC6(CC5)COc5c6ccc6c5CN(C5CCC(=O)NC5=O)C6=O)CC4)CC3)cn2)N1CC(F)(F)F (some centres unmarked) , give the reported pIC50.
# output 8.00

# input For the compound shown here, O=C1CCC(N2Cc3cc4c(cc3C2=O)OC2(CC4)CN(C(=O)C3CCN(c4ccc([C@@H]5c6ccc(O)cc6CC[C@@H]5c5ccccc5)cc4)CC3)C2)C(=O)N1 (some centres unmarked) , give the reported pIC50.
# output 7.91

# input For the compound shown here, O=C1CCC(N2Cc3c(ccc4c3OCC43CCN(CC4CCN(C(=O)C5CCN(c6ccc([C@@H]7c8ccc(O)cc8CC[C@@H]7c7ccccc7)cc6)CC5)CC4)CC3)C2=O)C(=O)N1 (some centres unmarked) , give the reported pIC50.
# output 9.08

# input For the compound shown here, O=C1CCC(N2Cc3cc4c(cc3C2=O)CCC2(CN(C(=O)C3CC5(CCN(c6ccc([C@@H]7c8ccc(O)cc8CC[C@@H]7c7ccccc7)cc6)CC5)C3)C2)O4)C(=O)N1 (some centres unmarked) , give the reported pIC50.
# output 7.91

# input For the compound shown here, CNC(=O)[C@@H]1CC(N2CCC3(CC2)COc2c3ccc3c2CN(C2CCC(=O)NC2=O)C3=O)CCN1C1CC2(CCN(c3ccc([C@@H]4c5ccc(O)cc5CC[C@@H]4c4ccccc4)cc3)CC2)C1 (some centres unmarked) , give the reported pIC50.
# output 8.59

# input For the compound shown here, C[C@@H]1CN(C(=O)C2CCN(c3cc(F)c(C4c5ccc6[nH]ncc6c5C[C@@H](C)N4CC(F)F)c(F)c3)CC2)CCC1N1CCC2(CC1)COc1c2ccc2c1CN(C1CCC(=O)NC1=O)C2=O (some centres unmarked) , give the reported pIC50.
# output 9.00

# input For the compound shown here, CCN(CC(=O)N1CCC2(CC1)COc1c2ccc2c1CN(C1CCC(=O)NC1=O)C2=O)CC1CCN(c2ccc([C@@H]3c4ccc(O)cc4CC[C@@H]3c3ccccc3)cc2)CC1 (some centres unmarked) , give the reported pIC50.
# output 8.96

# input For the compound shown here, O=C1CCC(N2Cc3cc4c(cc3C2=O)OC2(CC4)CN(C3CCC4(CC3)CN(c3ccc(C5c6ccc(O)cc6CCC5c5ccccc5)cc3)C4)C2)C(=O)N1 (centres unmarked) , give the reported pIC50.
# output 7.51

# input For the compound shown here, C[C@@H]1Cc2c(ccc3[nH]ncc23)[C@@H](c2c(F)cc(N3CCC4(CCN(C(=O)CN5CCC6(CC5)COc5c6ccc6c5CN(C5CCC(=O)NC5=O)C6=O)CC4)CC3)cc2F)N1CC(F)F (some centres unmarked) , give the reported pIC50.
# output 9.21

# input For the compound shown here, O=C1CCC(N2Cc3c(ccc4c3OCC43CCN(C4CCN(C5CC6(CCN(c7ccc([C@@H]8c9ccc(O)cc9CC[C@@H]8c8ccccc8)cc7)CC6)C5)[C@@H](C(=O)N5CC(F)(F)C5)C4)CC3)C2=O)C(=O)N1 (some centres unmarked) , give the reported pIC50.
# output 8.92

# input For the compound shown here, O=C1CCC(N2Cc3c(ccc4c3OCC43CCN(C(=O)C4CCC(N5CCC(C#Cc6ccc([C@@H]7c8ccc(O)cc8CC[C@@H]7c7ccccc7)cc6)CC5)CC4)CC3)C2=O)C(=O)N1 (some centres unmarked) , give the reported pIC50.
# output 9.04

# input For the compound shown here, O=C1CCC(N2Cc3c(ccc4c3OC3(CC4)CCN(C4CCN(C5CN(c6ccc([C@@H]7c8ccc(O)cc8CC[C@@H]7c7ccccc7)cc6)C5)CC4)CC3)C2=O)C(=O)N1 (some centres unmarked) , give the reported pIC50.
# output 7.74

# input For the compound shown here, O=C1CCC(N2Cc3c(ccc4c3OCC43CCN(C(=O)CN(CC4CC4)CC4CCN(c5ccc([C@@H]6c7ccc(O)cc7CC[C@@H]6c6ccccc6)cc5)CC4)CC3)C2=O)C(=O)N1 (some centres unmarked) , give the reported pIC50.
# output 8.80
